Each record here notes measured DC50.
# testSystem: AsPC-1 HiBiT-KRASG12D (Homo sapiens, UniProt P01116, G12D)
# Construct: insert the HiBiT tag onto the N-terminus of one or more of the endogenous KRAS alleles; endogenous in cells; host or cells: AsPC-1 (ATCC CRL-1682), CRISPR-Cas9 knock-in clone, one tagged allele
# Sequence (P01116 1-188 isoform P01116-2 G12D): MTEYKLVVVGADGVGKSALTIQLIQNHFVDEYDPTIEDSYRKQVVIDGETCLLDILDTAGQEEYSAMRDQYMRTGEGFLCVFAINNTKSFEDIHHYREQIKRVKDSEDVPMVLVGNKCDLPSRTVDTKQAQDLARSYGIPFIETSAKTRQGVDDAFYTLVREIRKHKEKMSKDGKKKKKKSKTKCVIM
# assaySummary: HiBiT degradation assay (G12D), AsPC-1 HiBiT-KRASG12D cells
# Format: cell-based
# recordedConditions: AsPC-1 HiBiT-KRASG12D cells, 24 hours treatment, HiBiT luminescence

In: Given `CCc1cccc2cc(O)cc(-c3ncc4c(N5CC6CCC(C5)N6)nc(OCCN5CCC(COc6cc([C@H](C(=O)N7C[C@H](O)C[C@H]7C(=O)N[C@@H](C)c7ccc(-c8scnc8C)cc7)C(C)C)on6)CC5)nc4c3F)c12` , state its recorded DC50.
Out: < 600 nM

In: Try the compound `CCc1cccc2cc(O)cc(-c3ncc4c(N5CC6CCC(C5)N6)nc(OCCN5CCC(CN6CC7(C6)CN(c6cc([C@@H](C(=O)N8C[C@H](O)C[C@H]8C(=O)N[C@@H](C)c8ccc(-c9scnc9C)cc8)C(C)C)on6)C7)CC5)nc4c3F)c12`
Out: > 3000 nM
